testName: method code SF-AS, from DOI: 10.1007/bf02273190
measurementType: logP

>>> reportedvalue("CCCCCCC(=O)N(C)c1ccc(S(=O)(=O)N(C)C)cc1")
2.61

* * *

testName: method code SF-GR, from DOI: 10.1016/s0022-3565(25)32611-x, PMID: 7230009
Listed next: entries and their corresponding logP.
measurementType: logP

>>> reportedvalue("CC1(C)[C@H]2O[C@H]2[C@@H]2[C@]1(O)[C@H](O)[C@@H](O)C13C[C@@](C)(O)[C@@H](CC[C@@]1(O)[C@@]2(C)O)[C@@H]3O")
-0.57
>>> reportedvalue("CC1(C)[C@@H](O)C[C@H]2[C@](C)(O)[C@@H]3CC[C@@H]4[C@@H](O)[C@@]3(C[C@@H](O)[C@@]21O)C[C@@]4(C)O")
0.27

* * *

testName: method code SF-AS, from DOI: 10.1016/0006-2952(93)90433-w, PMID: 8494536
details: pH 7.4
measurementType: logD

>>> reportedvalue("CS(=O)CCCOc1ccc2ccccc2c1 (stereo not drawn)")
2.42
>>> reportedvalue("CS(=O)(=O)c1cccc2ccccc12")
1.74
>>> reportedvalue("Cc1ccc2cc3ccccc3cc2c1")
5

* * *

testName: method code SF-AS, from DOI: 10.1080/00021369.1974.10861343
Listed next: entries and their corresponding logP.
measurementType: logP

>>> reportedvalue("COC(=O)/C=C/Oc1ccccc1")
2.68
>>> reportedvalue("COC(=O)C=COc1ccccc1Cl")
3.02
>>> reportedvalue("CCOC(=O)C=COc1ccccc1Cl")
3.55

* * *

measurementType: logP

>>> reportedvalue("C/C=C/OCC(O)Cn1ccnc1[N+](=O)[O-] (configuration not stated)")
0.28
>>> reportedvalue("CCOCC(O)Cn1ccnc1[N+](=O)[O-] (configuration not stated)")
-0.07

* * *

testName: method code SF, from DOI: 10.1016/0048-3575(88)90017-x
Listed next: entries and their corresponding logP.
measurementType: logP

>>> reportedvalue("CC(=O)OCN1C(=O)c2ccccc2C1=O")
1.15
>>> reportedvalue("CC(=O)OCN1Cc2ccccc2C1=O")
0.99
>>> reportedvalue("CC(=O)OCN1C(=O)C(C)=C(C)C1=O")
0.65

* * *

details: pH 7.4
Listed next: entries and their corresponding logD.
measurementType: logD

>>> reportedvalue("CC(=O)Oc1ccccc1C(=O)OCCN(C)C(C)=O")
1.46
>>> reportedvalue("CC(=O)Oc1ccccc1C(=O)OCS(C)=O (configuration not stated)")
0.11

* * *

measurementType: logP

>>> reportedvalue("COc1cc(O)cc(C(C)=O)c1")
1.85

* * *

testName: method code SF-AS, from DOI: 10.1021/j150653a049
Listed next: entries and their corresponding logP.
measurementType: logP

>>> reportedvalue("Cc1ccc(O)c(CO)c1")
0.97
>>> reportedvalue("OCc1cc(Br)ccc1O")
1.72
>>> reportedvalue("OCc1cccc(O)c1")
0.5

* * *

Listed next: entries and their corresponding logP.
measurementType: logP

>>> reportedvalue("CC(=O)NC(CCC(=O)O)C(=O)Nc1nnc(-c2cccc(Cl)c2Cl)c(N)n1 (stereo not drawn)")
1.6
>>> reportedvalue("CC(=O)NCC(=O)Nc1nnc(-c2cccc(Cl)c2Cl)c(N)n1")
1.1
>>> reportedvalue("CSCCC(NC(C)=O)C(=O)Nc1nnc(-c2cccc(Cl)c2Cl)c(N)n1 (stereo not drawn)")
1.92
